Tested on: biotinyl-Trp-oxazolone
PROTOCOL_TEXT: self-aminoacylation, catalytic enhancement (BWO) (fold over background); higher = more active; k-Seq, kA / k0A0; sequences stand for … in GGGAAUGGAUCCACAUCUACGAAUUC…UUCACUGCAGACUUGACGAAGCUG
This sample holds only a part of the variants without activity.
Known self-aminoacylation of a selection of sequences

RESIDUE_SEQUENCE | EXPERIMENTAL_SYSTEM | self-aminoacylation
CCACACUUCAAGCACUUGGUC [Fam1B.1 aminoacylation ribozyme variant] | biotinyl-Trp-oxazolone | 0.616
AUUCACCUAGGUCAUCUAGUG [Fam2.2 aminoacylation ribozyme variant] | biotinyl-Trp-oxazolone | 4.12
CCACACUGCCAGCAAUCGGUC [Fam1B.1 aminoacylation ribozyme variant] | biotinyl-Trp-oxazolone | 1.39
AUUACCCUGCUCAUCGACUGA [Fam2.1 aminoacylation ribozyme variant] | biotinyl-Trp-oxazolone | 0.534
AAGUUUGCUAAUAAUCGCAAC [Fam3.1 aminoacylation ribozyme variant] | biotinyl-Trp-oxazolone | 1.18
AUUAACCUGGUCAUCGAGUGG [Fam2.1 aminoacylation ribozyme variant] | biotinyl-Trp-oxazolone | 2.03
AUUACCGUGGUCAUCGAGUGA [Fam2.1 aminoacylation ribozyme variant] | biotinyl-Trp-oxazolone | 7.62
AUCACCCUGAUCAUCGAGUGA [Fam2.1 aminoacylation ribozyme variant] | biotinyl-Trp-oxazolone | 10.9
AUUCACCUAGGUUAUCGGGUU [Fam2.2 aminoacylation ribozyme variant] | biotinyl-Trp-oxazolone | 2.04
AUUCACCCAGGUCAUCGCGUG [Fam2.2 aminoacylation ribozyme variant] | biotinyl-Trp-oxazolone | 13
AAGUUUGCUAAUAGUCGCAUG [Fam3.1 aminoacylation ribozyme variant] | biotinyl-Trp-oxazolone | 0.976
AUUACCCAGGUUAUCGAGUGA [Fam2.1 aminoacylation ribozyme variant] | biotinyl-Trp-oxazolone | 11.6
AUUCACGUAGGGCAUCGGGUG [Fam2.2 aminoacylation ribozyme variant] | biotinyl-Trp-oxazolone | 5.13
CUACCUCAACCAAUCGGUCUG [Fam1A.1 aminoacylation ribozyme variant] | biotinyl-Trp-oxazolone | 0.886
CCACACUUCAAGCAAGCGGGC [Fam1B.1 aminoacylation ribozyme variant] | biotinyl-Trp-oxazolone | 2.67
AUUACCCUGUUCAUAGAGUGA [Fam2.1 aminoacylation ribozyme variant] | biotinyl-Trp-oxazolone | 18
AUUAGCCUGGUCAUAGAGUGA [Fam2.1 aminoacylation ribozyme variant] | biotinyl-Trp-oxazolone | 7.07
UUUACCCUGGUCAUCGAGUUA [Fam2.1 aminoacylation ribozyme variant] | biotinyl-Trp-oxazolone | 6.24

====

Tested on: biotinyl-Trp-oxazolone
PROTOCOL_TEXT: self-aminoacylation, catalytic enhancement (BWO) (fold over background); higher = more active; k-Seq, kA / k0A0; sequences stand for … in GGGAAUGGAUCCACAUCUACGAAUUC…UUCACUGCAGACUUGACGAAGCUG
Fewer inactive variants are shown than the library holds.
Known self-aminoacylation of a selection of sequences

RESIDUE_SEQUENCE | self-aminoacylation
AAGUUUGCUACUAGUCGUAAG [Fam3.1 aminoacylation ribozyme variant] | 0.867
CUACUACAAACAAUAGGUCUG [Fam1A.1 aminoacylation ribozyme variant] | 0.456
ACUCACCUUGGUCAUCGGGUG [Fam2.2 aminoacylation ribozyme variant] | 9.04
AUUCACCUAAGUCGUCGGGUG [Fam2.2 aminoacylation ribozyme variant] | 2.02
AUUCACCUAGGUCAUCGGUUG [Fam2.2 aminoacylation ribozyme variant] | 0.932
AUUAGCCUGGGCAUCGAGUGA [Fam2.1 aminoacylation ribozyme variant] | 7.8
UUUGACCUAGGUCAUCGGGUG [Fam2.2 aminoacylation ribozyme variant] | 6.51
AUUCAAAUAGGUCAUCGGGUG [Fam2.2 aminoacylation ribozyme variant] | 5.77
AAGUUGGCUAAUAGUCGCAAA [Fam3.1 aminoacylation ribozyme variant] | 2.03
AAAUUUGCUAAUAGUCACAAG [Fam3.1 aminoacylation ribozyme variant] | 1.71
AUUCACCGACGUCAUCGGGUG [Fam2.2 aminoacylation ribozyme variant] | 9.46
AUCCACCUAGAUCAUCGGGUG [Fam2.2 aminoacylation ribozyme variant] | 4.45
AUUACCCUGGUUAUCGAGUUA [Fam2.1 aminoacylation ribozyme variant] | 0.319
AUGACCCUGGACAUCGAGUGA [Fam2.1 aminoacylation ribozyme variant] | 5.26
AUUACCCUGGUCAUCGACUGC [Fam2.1 aminoacylation ribozyme variant] | 0.371
AAGUCUGCUAAUAGUCGGAAG [Fam3.1 aminoacylation ribozyme variant] | 7.78
CUACUUCGAACAAACGGUCUG [Fam1A.1 aminoacylation ribozyme variant] | 0.619
AAGUUUGCUAAUUCUCGCAAG [Fam3.1 aminoacylation ribozyme variant] | 2.64
CCCCGCUUCAAGCAAUCGGUC [Fam1B.1 aminoacylation ribozyme variant] | 70.4
AAGUUCGCUAAUAGUCGUAAG [Fam3.1 aminoacylation ribozyme variant] | 4.33
CUACUUCAAUCAAUCGGUCUU [Fam1A.1 aminoacylation ribozyme variant] | 10.6
GUUCACCUAGGUCAUCCGGUG [Fam2.2 aminoacylation ribozyme variant] | 7.53
CUACUUCAAUCAAUCUGUCUG [Fam1A.1 aminoacylation ribozyme variant] | 0.721
AUUGAUCUAGGUCAUCGGGUG [Fam2.2 aminoacylation ribozyme variant] | 7.06
AAGUUUGCUAAUUGUCGCAGG [Fam3.1 aminoacylation ribozyme variant] | 1.34
AUUACGCUGGUCAUCGACUGA [Fam2.1 aminoacylation ribozyme variant] | 1.65
CUACACUUCAAGAAAUCGGUC [Fam1B.1 aminoacylation ribozyme variant] | 5.31
AAGUUUGCUAAUAGUCGCAGU [Fam3.1 aminoacylation ribozyme variant] | 3.14
CCACACUUCAAGCAAUUGGAC [Fam1B.1 aminoacylation ribozyme variant] | 0.337
AUUACCCUGGGCAUCGGGUGA [Fam2.1 aminoacylation ribozyme variant] | 10.8
CCACACUACAAGCAAUCGGUG [Fam1B.1 aminoacylation ribozyme variant] | 5.03
CCACACUUCAAGCCAUCUGUC [Fam1B.1 aminoacylation ribozyme variant] | 0.498
ACACACUUCAAGUAAUCGGUC [Fam1B.1 aminoacylation ribozyme variant] | 6
AUUACCCUUGUCAUCGAGUGU [Fam2.1 aminoacylation ribozyme variant] | 3.65
AUUACCCUGGUCAUAGACUGA [Fam2.1 aminoacylation ribozyme variant] | 0.537

Recorded values, source the supplement of paper PMC9233669.
